Every entry's value here was drawn from ChEMBL document CHEMBL4622968.

Test system: T47D
experiment notes: Antiproliferation activity against human T47D cells assessed as reduction in cell viability incubated for 72 hr by MTT assay
Type: functional, cell-based
readout type: IC50

O=C(Nc1ccc(Cl)c(-c2nnc3c(Cl)cccn23)c1)c1cccnc1
> 100 µM

Data request: So what's the measured IC50 for this one? CS(=O)(=O)c1ccc(C(=O)Nc2ccc(Cl)c(-c3nnc4c(Cl)cccn34)c2)cc1
Data returned: > 100 µM

Data request: Also check Cc1nc(C(=O)Nc2ccc(Cl)c(-c3nnc4c(Cl)cccn34)c2)cs1
Data returned: > 100 µM

Data request: Quick one: O=C(Nc1ccc(Cl)c(-c2nnc3c(Cl)cccn23)c1)c1ccccc1
Data returned: > 100 µM

Data request: Moving on to O=C(Nc1ccc(Cl)c(-c2nnc3c(Cl)cccn23)c1)c1cccnc1Cl
Data returned: > 100 µM

Data request: And O=C(Nc1ccc(Cl)c(-c2nnc3c(Cl)cccn23)c1)c1ccccn1 ?
Data returned: > 100 µM

Data request: Try this compound next: O=C(Nc1ccc(Cl)c(-c2nnc3c(Cl)cccn23)c1)c1ccc(Cl)nc1Cl
Data returned: 42.3 µM

Data request: Let us now turn to CS(=O)(=O)c1ccc(C(=O)Nc2ccc(Cl)c(-c3nnc4c(Cl)cccn34)c2)c(Cl)c1
Data returned: > 100 µM

Data request: Also check O=C(Nc1ccc(Cl)c(-c2nnc3c(Cl)cccn23)c1)c1ccc(Cl)cc1
Data returned: > 100 µM

Data request: What do you get for O=C(Nc1ccc(Cl)c(-c2nnc3c(Cl)cccn23)c1)c1ccccc1Cl ?
Data returned: 83.8 µM

Data request: Now try O=C(Nc1ccc(Cl)c(-c2nnc3c(Cl)cccn23)c1)c1ccon1 .
Data returned: > 100 µM

Data request: And what about the compound O=C(Nc1ccc(Cl)c(-c2nnc3c(Cl)cccn23)c1)c1ccc(F)cc1Cl ?
Data returned: > 100 µM

###

subject of test: Protein smoothened (Homo sapiens)
Sequence (Q99835 whole entry): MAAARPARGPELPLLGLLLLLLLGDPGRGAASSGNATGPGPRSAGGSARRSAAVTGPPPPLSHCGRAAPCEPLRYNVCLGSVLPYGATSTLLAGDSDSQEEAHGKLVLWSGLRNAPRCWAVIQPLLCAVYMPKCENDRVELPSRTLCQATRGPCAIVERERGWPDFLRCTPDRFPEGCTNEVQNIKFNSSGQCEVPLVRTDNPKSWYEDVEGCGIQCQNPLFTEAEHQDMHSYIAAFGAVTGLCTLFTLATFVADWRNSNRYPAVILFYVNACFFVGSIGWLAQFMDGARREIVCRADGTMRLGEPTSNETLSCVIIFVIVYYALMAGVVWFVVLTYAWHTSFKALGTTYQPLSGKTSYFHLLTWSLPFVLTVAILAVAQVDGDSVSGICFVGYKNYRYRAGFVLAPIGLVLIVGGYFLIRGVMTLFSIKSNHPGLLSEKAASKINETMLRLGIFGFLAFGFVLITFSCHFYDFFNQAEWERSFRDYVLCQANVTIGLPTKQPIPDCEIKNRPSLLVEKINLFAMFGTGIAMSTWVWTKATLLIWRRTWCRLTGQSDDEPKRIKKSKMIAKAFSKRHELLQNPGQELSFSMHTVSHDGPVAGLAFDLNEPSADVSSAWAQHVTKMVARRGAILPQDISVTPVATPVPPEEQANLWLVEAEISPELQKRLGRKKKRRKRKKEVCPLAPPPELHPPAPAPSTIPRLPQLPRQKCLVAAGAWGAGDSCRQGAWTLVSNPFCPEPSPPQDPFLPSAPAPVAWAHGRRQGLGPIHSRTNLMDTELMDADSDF
experiment notes: Binding affinity to recombinant human Smo receptor assessed as association constant at equilibrium by SPR analysis
# KA values compiled below
Use ×10⁷ /M as the unit, but write only the number.

Data request: Please tell me: KA of O=C(Nc1ccc(Cl)c(-c2nnc3c(Cl)cccn23)c1)c1ccc(C(F)(F)F)nc1Cl , system Protein smoothened (Homo sapiens)?
Data returned: 9.43

Data request: Moving on to the next molecule: O=C(Nc1ccc(Cl)c(-c2nnc3c(Cl)cccn23)c1)c1ccc(Cl)nc1Cl
Data returned: 9.71

###

Tested on: U-251
experiment notes: Antiproliferation activity against human U251 cells assessed as reduction in cell viability incubated for 72 hrs by MTT assay
Type: functional, cell-based
measurement conditions: U-251, 72 h
readout type: IC50

Example cases with answers are listed next.
O=C(Nc1ccc(Cl)c(-c2nnc3c(Cl)cccn23)c1)c1ccccc1Cl
> 100 µM
O=C(Nc1ccc(Cl)c(-c2nnc3c(Cl)cccn23)c1)c1ccc(F)cc1Cl
> 100 µM
O=C(Nc1ccc(Cl)c(-c2nnc3c(Cl)cccn23)c1)c1ccc(C(F)(F)F)cc1Cl
> 100 µM
CS(=O)(=O)c1ccc(C(=O)Nc2ccc(Cl)c(-c3ccccn3)c2)c(Cl)c1
> 100 µM
O=C(Nc1ccc(Cl)c(-c2nnc3c(Cl)cccn23)c1)c1cccnc1Cl
> 100 µM
O=C(Nc1ccc(Cl)c(-c2nnc3c(Cl)cccn23)c1)c1ccc(C(F)(F)F)cc1F
> 100 µM
O=C(Nc1ccc(Cl)c(-c2nnc3c(Cl)cccn23)c1)c1ccc(Cl)nc1Cl
85.2 µM
O=C(Nc1ccc(Cl)c(-c2nnc3c(Cl)cccn23)c1)c1cccnc1
> 100 µM
O=C(Nc1ccc(Cl)c(-c2nnc3c(Cl)cccn23)c1)c1ccc(Cl)cc1Cl
> 100 µM
O=C(Nc1ccc(Cl)c(-c2nnc3c(Cl)cccn23)c1)c1ccc(Cl)cc1
> 100 µM

Data request: # get_value(readout='IC50', item= CS(=O)(=O)c1cccc(C(=O)Nc2ccc(Cl)c(-c3nnc4c(Cl)cccn34)c2)c1 )
Data returned: > 100 µM

Data request: Next up: O=C(Nc1ccc(Cl)c(-c2nnc3c(Cl)cccn23)c1)c1ccc(C(F)(F)F)nc1Cl
Data returned: > 100 µM

Data request: Same question for Cc1nc(C(=O)Nc2ccc(Cl)c(-c3nnc4c(Cl)cccn34)c2)cs1 please.
Data returned: 74.3 µM

Data request: Next molecule up: O=C(Nc1ccc(Cl)c(-c2nnc3c(Cl)cccn23)c1)c1ccccn1
Data returned: 79 µM
